Reported EC50 values are given for each entry in this list.
# tested system: Adenosine receptor A1 (Rattus norvegicus, UniProt P25099)
# Sequence (P25099 whole entry): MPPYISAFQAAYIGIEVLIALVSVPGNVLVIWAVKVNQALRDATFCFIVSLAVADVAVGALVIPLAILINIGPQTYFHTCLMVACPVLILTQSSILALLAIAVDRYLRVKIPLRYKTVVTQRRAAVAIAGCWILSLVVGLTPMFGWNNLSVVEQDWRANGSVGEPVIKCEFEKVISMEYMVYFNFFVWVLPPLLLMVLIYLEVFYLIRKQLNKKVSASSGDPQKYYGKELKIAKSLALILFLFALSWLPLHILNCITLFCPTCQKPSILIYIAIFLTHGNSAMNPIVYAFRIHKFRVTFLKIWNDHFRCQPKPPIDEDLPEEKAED
# procedure text: Negative chronotropic activity for A1 Adenosine receptor in spontaneously beating rat atria
# Assay type: functional
quantity name: EC50

# compound, reported
records = [
    ("CCNC(=O)[C@H]1O[C@@H](n2cnc3c(N)nc(C#CCCOC4CCCCO4)nc32)[C@H](O)[C@@H]1O (some centres undefined)", "> 10 µM"),
    ("CCNC(=O)[C@H]1O[C@@H](n2cnc3c(N)nc(C#CC4(N)CCCCC4)nc32)[C@H](O)[C@@H]1O", "> 10 µM"),
    ("CCNC(=O)[C@H]1O[C@@H](n2cnc3c(N)nc(C#CC4(O)CCCC4)nc32)[C@H](O)[C@@H]1O", "0.475 µM"),
    ("CCNC(=O)[C@H]1O[C@@H](n2cnc3c(N)nc(C#CC4=CCCCC4)nc32)[C@H](O)[C@@H]1O", "> 10 µM"),
]

These measurements were taken from ChEMBL document CHEMBL1127534.
